Origin of measurements: patent US12606557B2

- MEASUREMENT_PROTOCOL: Plasma pharmacokinetics after a single intraperitoneal dose
- Format: in vivo, male CD1 mice
- EXPERIMENTAL_CONDITIONS: male, CD1, mouse, plasma, intraperitoneal, 10 mg/kg, 10 mg/kg IP, 24 hr; average of two values
QUANTITY: concentration at 24 hr (ng/mL)
Quick note: give the figure in ng/mL, leave out the unit.

Given "COc1ccc(Cn2ccc3ccc(C(=O)NS(C)(=O)=O)cc32)cc1" , state its recorded concentration at 24 hr.
99.7

---

- MEASUREMENT_PROTOCOL: Plasma pharmacokinetics after a single intraperitoneal dose
- Type: in vivo, male CD1 mice
- EXPERIMENTAL_CONDITIONS: male, CD1, mouse, plasma, intraperitoneal, 50 mg/kg, 50 mg/kg IP, 4 hr; read-out: Plasma Concentration, Mean
QUANTITY: concentration at 4 hr (µg/mL)
Number only, in µg/mL; omit the unit.

Given the entry "COc1ccc(Cn2ccc3ccc(C(=O)NS(C)(=O)=O)cc32)cc1" , report its measured concentration at 4 hr.
116
